# credit: ChEMBL document CHEMBL3616462

assay: Antiviral activity against Influenza A virus (A/Viet Nam/1203/2004(H5N1)) infected in MDCK cells; type: functional, cell-based
pEC50: −log10 of the molar value.
measured_parameter: pEC50

1) CC(C)C1=C[C@]23CC[C@@H]4[C@](C)(CCC[C@@]4(C)C(=O)O)[C@H]2C[C@H]1[C@H]1C(=O)OC(=O)[C@H]13    4.49
2) CC(C)C1=C[C@@]23CC[C@H]4[C@](C)(CO)CCC[C@]4(C)[C@H]2C[C@@H]1[C@@H]1[C@H]3[C@@H](O)CC[C@@H]1O    < 4.54
3) COC(=O)[C@]1(C)CCC[C@]2(C)[C@H]3C[C@H]4C(C(C)C)=C[C@]3(CC[C@H]21)[C@@H]1/C(=N/O)CC[C@H](O)[C@@H]14    < 5.92
4) COC(=O)[C@]1(C)CCC[C@]2(C)[C@H]3C[C@H]4C(C(C)C)=C[C@]3(CC[C@H]21)[C@@H]1C(=O)CC[C@H](OC(=O)CCC(=O)O)[C@@H]14    4.06
5) COC(=O)[C@]1(C)CCC[C@]2(C)[C@H]3C[C@H]4C(C(C)C)=C[C@]3(CC[C@H]21)[C@H]1[C@@H]4[C@@H](O)CC[C@@H]1O    < 4.00
6) COC(=O)[C@]1(C)CCC[C@]2(C)[C@H]3C[C@H]4C(C(C)C)=C[C@]3(CC[C@H]21)[C@H]1[C@@H]4[C@@H](OC(=O)/C=C/c2ccccc2)CC[C@@H]1OC(=O)C=Cc1ccccc1    < 5.09
7) COC(=O)[C@]1(C)CCC[C@]2(C)[C@H]3C[C@H]4C(C(C)C)=C[C@]3(CC[C@H]21)[C@@H]1/C(=N/OC(C)=O)CC[C@H](OC(C)=O)[C@@H]14    < 5.60
8) COC(=O)[C@]1(C)CCC[C@]2(C)[C@H]3C[C@H]4C(C(C)C)=C[C@]3(CC[C@H]21)[C@@H]1C(=O)CCC(=O)[C@@H]14    < 4.00
9) COC(=O)[C@]1(C)CCC[C@]2(C)[C@H]3C[C@H]4C(C(C)C)=C[C@]3(CC[C@H]21)[C@H]1[C@@H]4[C@@H](OC(=O)CCC(=O)O)CC[C@@H]1OC(=O)CCC(=O)O    5.49
10) COC(=O)[C@]1(C)CCC[C@]2(C)[C@H]3C[C@H]4C(C(C)C)=C[C@]3(CC[C@H]21)[C@H]1[C@@H]4[C@@H](OC(=O)c2cccnc2)CC[C@@H]1OC(=O)c1cccnc1    < 5.07
11) COC(=O)[C@]1(C)CCC[C@]2(C)[C@H]3C[C@H]4C(C(C)C)=C[C@]3(CC[C@H]21)[C@@H]1C(=O)CC[C@H](OC(=O)c2cccnc2)[C@@H]14    5.49

---

Readings of EC50 for the listed molecules
test: Antiviral activity against Influenza A virus (A/California/07/2009(H1N1)) infected in MDCK cells; type: functional, cell-based
measured_parameter: EC50 (µM)

1. CC(C)C1=C[C@@]23CC[C@@H]4[C@](C)(CCC[C@@]4(C)C(=O)O)[C@H]2C[C@@H]1[C@H]1C(=O)C=CC(=O)[C@H]13    32
2. COC(=O)[C@]1(C)CCC[C@]2(C)[C@H]3C[C@H]4C(C(C)C)=C[C@]3(CC[C@H]21)[C@H]1[C@@H]4[C@@H](O)CC[C@@H]1O    48
3. COC(=O)[C@]1(C)CCC[C@]2(C)[C@H]3C[C@H]4C(C(C)C)=C[C@]3(CC[C@H]21)[C@@H]1/C(=N/O)CC[C@H](O)[C@@H]14    3.2

---

assay: Selectivity index, ratio of CC50 for Influenza B virus (B/Florida/4/2006) infected MDCK cells to EC50 for antiviral activity against Influenza B virus (B/Florida/4/2006) in MDCK cells; type: toxicity, cell-based; settings: dog; read-out: Ratio CC50/EC50
Item-by-item account of selectivity ratio
measured_parameter: selectivity ratio

1. COC(=O)[C@]1(C)CCC[C@]2(C)[C@H]3C[C@H]4C(C(C)C)=C[C@]3(CC[C@H]21)[C@@H]1C(=O)CC[C@H](OC(=O)c2cccnc2)[C@@H]14    1
2. COC(=O)[C@H]1[C@@H](C(=O)OC)C2(C(=O)OC)CC[C@@H]3[C@](C)(CCC[C@@]3(C)C(=O)OC)[C@H]2C[C@H]1C(=O)C(C)C (stereo partly drawn)    1.1
3. COC(=O)[C@]1(C)CCC[C@]2(C)[C@H]3C[C@H]4C(C(C)C)=C[C@]3(CC[C@H]21)[C@H]1[C@@H]4[C@@H](OC(=O)CCC(=O)O)CC[C@@H]1OC(=O)CCC(=O)O    1.1
4. COC(=O)[C@H](C)NC(=O)[C@]1(C)CCC[C@]2(C)[C@H]3C[C@H]4C(C(C)C)=C[C@]3(CC[C@H]21)[C@@H]1C(=O)CCC(=O)[C@@H]14    1.5
5. CC(C)C1=C[C@@]23CC[C@@H]4[C@](C)(CCC[C@@]4(C)C(=O)O)[C@H]2C[C@@H]1[C@H]1C(=O)CCC(=O)[C@H]13    4
6. COC(=O)[C@]1(C)CCC[C@]2(C)[C@H]3C[C@H]4C(C(C)C)=C[C@]3(CC[C@H]21)[C@@H]1/C(=N/O)CCC2(OCCO2)[C@@H]14    1
7. CC(C)C1=C[C@]23CC[C@@H]4[C@](C)(CCC[C@@]4(C)C(=O)O)[C@H]2C[C@H]1[C@H]1C(=O)OC(=O)[C@H]13    1.3
8. COC(=O)[C@]1(C)CCC[C@]2(C)[C@H]3C[C@H]4C(C(C)C)=C[C@]3(CC[C@H]21)[C@@H]1C(=O)[C@H]2O[C@H]2C(=O)[C@@H]14    1
9. COC(=O)[C@H](CCSC)NC(=O)[C@]1(C)CCC[C@]2(C)[C@H]3C[C@H]4C(C(C)C)=C[C@]3(CC[C@H]21)[C@@H]1C(=O)OC(=O)[C@@H]14    1
10. COC(=O)[C@H](C)NC(=O)[C@]1(C)CCC[C@]2(C)[C@H]3C[C@H]4C(C(C)C)=C[C@]3(CC[C@H]21)[C@@H]1C(=O)OC(=O)[C@@H]14    1
11. COC(=O)[C@]1(C)CCC[C@]2(C)[C@H]3C[C@H]4C(C(C)C)=C[C@]3(CC[C@H]21)[C@@H]1C(=O)CC[C@H](OC(=O)/C=C/c2ccccc2)[C@@H]14    2.4
12. COC(=O)[C@]1(C)CCC[C@]2(C)[C@H]3CC4C(C(C)C)=C[C@]3(CC[C@H]21)[C@@H]1NC(=O)CC[C@H](O)[C@H]41    1.5

---

experiment: Antiviral activity against Influenza A virus (A/Viet Nam/1203/2004(H5N1)) infected in MDCK cells; assay type: functional, cell-based
measured_parameter: EC50

1. COC(=O)[C@]1(C)CCC[C@]2(C)[C@H]3CC4C(C(C)C)=C[C@]3(CC[C@H]21)[C@@H]1NC(=O)CC[C@H](O)[C@H]41    > 28 µM
2. CC(C)C1=C[C@@]23CC[C@@H]4[C@](C)(CCC[C@@]4(C)C(=O)O)[C@H]2C[C@@H]1[C@H]1C(=O)C=CC(=O)[C@H]13    > 30 µM
3. COC(=O)[C@]1(C)CCC[C@]2(C)[C@H]3C[C@H]4C(C(C)C)=C[C@]3(CC[C@H]21)[C@@H]1C(=O)CCC2(OCCO2)[C@@H]14    > 24 µM
4. COC(=O)[C@]1(C)CCC[C@]2(C)[C@H]3C[C@H]4C(C(C)C)=C[C@]3(CC[C@H]21)[C@@H]1C(=O)CC[C@H](O)[C@@H]14    > 100 µM
5. CC(C)C1=C[C@@]23CC[C@H]4[C@](C)(COC(=O)/C=C/c5ccccc5)CCC[C@]4(C)[C@H]2C[C@@H]1[C@@H]1[C@H]3[C@@H](OC(=O)/C=C/c2ccccc2)CC[C@@H]1OC(=O)/C=C/c1ccccc1    > 100 µM

---

assay: Cytotoxicity against Influenza B virus (B/Florida/4/2006) infected MDCK cells; assay type: cell-based, Canis lupus familiaris; details: dog
Note: every record was labeled by where its CC50 sits among band 1: < 4 µM; band 2: ≥ 4 µM and < 30 µM; band 3: ≥ 30 µM

1) COC(=O)[C@]12CC[C@H](O)[C@H]1[C@@]13C=C(C(C)C)[C@@H]2C[C@@H]1[C@@]1(C)CCC[C@@](C)(C(=O)OC)[C@@H]1CC3    band 1
2) COC(=O)[C@]1(C)CCC[C@]2(C)[C@H]3C[C@H]4C(C(C)C)=C[C@]3(CC[C@H]21)[C@H]1[C@@H]4[C@@H](OC(=O)c2cccnc2)CC[C@@H]1OC(=O)c1cccnc1    band 2
3) COC(=O)[C@]1(C)CCC[C@]2(C)[C@H]3C[C@H]4C(C(C)C)=C[C@]3(CC[C@H]21)[C@H]1[C@@H]4[C@@H](O)CC[C@@H]1O    band 3
4) COC(=O)[C@]1(C)CCC[C@]2(C)[C@H]3C[C@@H]4[C@@H]5[C@H]6[C@H](OC(C)=O)CC[C@@H]5OC4(C(C)C)C[C@]63CC[C@H]21    band 2
5) COC(=O)[C@]1(C)CCC[C@]2(C)[C@H]3C[C@H]4C(C(C)C)=C[C@]3(CC[C@H]21)[C@@H]1/C(=N/O)CCC(=O)[C@@H]14    band 1
6) COC(=O)[C@]12CCC(=O)[C@H]1[C@@]13C=C(C(C)C)[C@@H]2C[C@@H]1[C@@]1(C)CCC[C@@](C)(C(=O)OC)[C@@H]1CC3    band 3
7) COC(=O)[C@H](C)NC(=O)[C@]1(C)CCC[C@]2(C)[C@H]3C[C@H]4C(C(C)C)=C[C@]3(CC[C@H]21)[C@@H]1C(=O)OC(=O)[C@@H]14    band 3
8) COC(=O)[C@H]1[C@@H](C(=O)OC)C2(C(=O)OC)CC[C@@H]3[C@](C)(CCC[C@@]3(C)C(=O)OC)[C@H]2C[C@H]1C(=O)C(C)C (stereo partly specified)    band 1
9) COC(=O)[C@]1(C)CCC[C@]2(C)[C@H]3CC4C(C(C)C)=C[C@]3(CC[C@H]21)[C@@H]1NC(=O)CC[C@H](O)[C@H]41    band 3
10) COC(=O)[C@]1(C)CCC[C@]2(C)[C@H]3C[C@H]4C(C(C)C)=C[C@]3(CC[C@H]21)[C@H]1[C@@H]4[C@@H](OC(=O)CCC(=O)O)CC[C@@H]1OC(=O)CCC(=O)O    band 1
11) COC(=O)[C@H](C)NC(=O)[C@]1(C)CCC[C@]2(C)[C@H]3C[C@H]4C(C(C)C)=C[C@]3(CC[C@H]21)[C@@H]1C(=O)CCC(=O)[C@@H]14    band 3
12) COC(=O)[C@H](CCSC)NC(=O)[C@]1(C)CCC[C@]2(C)[C@H]3C[C@H]4C(C(C)C)=C[C@]3(CC[C@H]21)[C@@H]1C(=O)OC(=O)[C@@H]14    band 3
13) COC(=O)[C@]1(C)CCC[C@]2(C)[C@H]3C[C@H]4C(C(C)C)=C[C@]3(CC[C@H]21)[C@@H]1C(=O)CC[C@H](OC(=O)c2cccnc2)[C@@H]14    band 1
14) CC(C)C1=C[C@@]23CC[C@H]4[C@](C)(COC(=O)/C=C/c5ccccc5)CCC[C@]4(C)[C@H]2C[C@@H]1[C@@H]1[C@H]3[C@@H](OC(=O)/C=C/c2ccccc2)CC[C@@H]1OC(=O)/C=C/c1ccccc1    band 3
15) CC(C)C1=C[C@@]23CC[C@H]4[C@](C)(CO)CCC[C@]4(C)[C@H]2C[C@@H]1[C@@H]1[C@H]3[C@@H](O)CC[C@@H]1O    band 3
16) COC(=O)[C@]1(C)CCC[C@]2(C)[C@H]3C[C@H]4C(C(C)C)=C[C@]3(CC[C@H]21)[C@@H]1C(=O)CCC(=O)[C@@H]14    band 3
17) COC(=O)[C@]1(C)CCC[C@]2(C)[C@H]3C[C@H]4C(C(C)C)=C[C@]3(CC[C@H]21)[C@@H]1C(=O)CC[C@H](OC(=O)CCC(=O)O)[C@@H]14    band 3
18) COC(=O)[C@]1(C)CCC[C@]2(C)[C@H]3C[C@H]4C(C(C)C)=C[C@]3(CC[C@H]21)[C@@H]1C(=O)CC[C@H](OC(=O)/C=C/c2ccccc2)[C@@H]14    band 2
19) COC(=O)[C@]1(C)CCC[C@]2(C)[C@H]3C[C@H]4C(C(C)C)=C[C@]3(CC[C@H]21)[C@@H]1C(=O)C=CC(=O)[C@@H]14    band 1
20) COC(=O)[C@]1(C)CCC[C@]2(C)[C@H]3C[C@H]4C(C(C)C)=C[C@]3(CC[C@H]21)[C@@H]1C(=O)CC[C@H](OC(C)=O)[C@@H]14    band 3
21) CC(C)C1=C[C@@]23CC[C@@H]4[C@](C)(CCC[C@@]4(C)C(=O)O)[C@H]2C[C@@H]1[C@H]1C(=O)C=CC(=O)[C@H]13    band 2
